Kindly supply the reported pIC50 values for the records listed here.
# Measured target: mTOR (Homo sapiens)
# Method description: mTOR enzyme assay (DELFIA format, His6-S6K substrate)
# Type: biochemical
# Assay setup: read-out: mTOR Kinase Median IC50
Would you please state pIC50, meaning minus log10 of the concentration in mol/L, as a bare number?

Prompt: Quick one: pIC50 of Cn1cc(/C=C2\Oc3ccc(NC(=O)Nc4cccnc4)cc3C2=O)c2c(-c3ccc(C(=O)N4CCOCC4)cc3)ccnc21 [Compound 178] ?
Response: 7.26

Prompt: Report pIC50 for Cn1cc(C=C2Oc3ccc(NC(=O)Nc4cccnc4)cc3C2=O)c2c(N3CCC(C(=O)N[C@H]4CCNC4)CC3)ccnc21 [Compound 209] please.
Response: 7.58

Prompt: For Cn1cc(/C=C2\Oc3cccc(O)c3C2=O)c2c(-c3cccc(C(=O)Nc4ccc(F)cc4)c3)ccnc21 [Compound 96] , what is its reported pIC50?
Response: 7.89

Prompt: Look up pIC50 for this compound: CN1CCN(c2ccc(-c3ccnc4c3c(/C=C3\Oc5cccc(O)c5C3=O)cn4C)cc2)CC1 [Compound 57]
Response: 7.94

Prompt: Find the recorded pIC50 belonging to Cn1cc(/C=C2\Oc3ccc(O)cc3C2=O)c2c(-c3ccccc3)ccnc21 [Compound 42] and report it.
Response: 7.65

Prompt: I have this compound here, CN1CCN(C(=O)c2ccc(-c3ccnc4c3c(/C=C3\Oc5cccc(O)c5C3=O)cn4C)cc2)CC1 [Compound 124] , and I need its recorded pIC50.
Response: 9.00

Prompt: Please look up its pIC50: Cn1cc(/C=C2\Oc3ccc(NC(=O)Nc4cccnc4)cc3C2=O)c2c(N3CCC(C(=O)N4C5CCCC4COC5)CC3)ccnc21 [Compound 309]
Response: 7.32

Prompt: Need pIC50 of Cn1cc(/C=C2\Oc3cccc(O)c3C2=O)c2c(N3CCC(C(=O)N4CC5CCC(C4)O5)CC3)ccnc21 [Compound 306] , thanks.
Response: 8.70

Prompt: Any idea what pIC50 was measured for CN(Cc1ccccc1)C(=O)C1CCN(c2ccnc3c2c(C=C2Oc4ccc(NC(=O)Nc5cccnc5)cc4C2=O)cn3C)CC1 [Compound 215] ?
Response: 6.99

Prompt: Name the reported pIC50 value associated with the compound CN(Cc1ccncc1)C(=O)C1CCN(c2ccnc3c2c(/C=C2\Oc4ccc(NC(=O)Nc5cccnc5)cc4C2=O)cn3C)CC1 [Compound 255]
Response: 8.03

Prompt: What does the record list as pIC50 for Cn1cc(/C=C2\Oc3ccc(NC(=O)Nc4cccnc4)cc3C2=O)c2c(N3CC4COC(C3)O4)ccnc21 (stereo not shown) [Compound 282] ?
Response: 7.68

Prompt: Give the measured pIC50 of CN(C)C(=O)C1CCN(c2ccnc3c2c(/C=C2\Oc4ccc(NC(=O)Nc5ccc(CN6CCCCC6)cc5)cc4C2=O)cn3C)CC1 [Compound 216] .
Response: 7.52

Prompt: Give its pIC50 value. Item: COC1CCN(C(=O)c2ccc(-c3ccnc4c3c(/C=C3\Oc5ccc(NC(=O)Nc6cccnc6)cc5C3=O)cn4C)cc2)C1 (stereo not shown) [Compound 259]
Response: 7.76

Prompt: Name the reported pIC50 value associated with the compound Cn1cc(/C=C2\Oc3ccc(C(=O)O)cc3C2=O)c2c(N3CC4CCC(C3)O4)ccnc21 [Compound 197]
Response: 6.89

Prompt: Tell me the measured pIC50 of Cn1cc(C=C2Oc3ccc(NC(=O)Nc4cccnc4)cc3C2=O)c2c(N3CCC(C(=O)NCCN4CCCC4)CC3)ccnc21 [Compound 203] , please.
Response: 7.72

Prompt: Which value of pIC50 has been reported for COc1ccc(-c2ccnc3c2c(/C=C2\Oc4cccc(O)c4C2=O)cn3C)cc1S(=O)(=O)N1CCCC1 [Compound 86] in the records?
Response: 8.47

Prompt: Value lookup for pIC50; key = CN(C)Cc1cccc(-c2ccnc3c2c(/C=C2\Oc4cccc(O)c4C2=O)cn3C)c1 [Compound 122]
Response: 7.74

Prompt: So what does the record say about pIC50 for CN1CCN(c2ccc(NC(=O)Nc3ccc4c(c3)C(=O)/C(=C/c3cn(C)c5nccc(N6CC7CCC(C6)O7)c35)O4)cc2)CC1 [Compound 229] ?
Response: 6.55

Prompt: Please give the measured pIC50 for this compound: Cn1cc(/C=C2\Oc3cccc(O)c3C2=O)c2c(-c3cccc(C(=O)N4CCCC4)c3)ccnc21 [Compound 103]
Response: 8.18
